Reported pIC50 values, human NOX4 (hNOX4) (Homo sapiens, UniProt Q9NPH5).
When answering, recall that pIC50 equals minus log10 of the concentration in mol/L, and write that number alone.

Worked set:
                                   compound  endpoint_result
0  Cc1cc(F)cc(C)c1CSc1nc2ncsc2c(=O)n1-c1cc(F)c(O)c(F)c1             7.04
1  Cc1cc(F)ccc1CSc1nc2ncsc2c(=O)n1-c1cccnc1 [reference compound]             5.09
2  O=c1c2scnc2nc(SCc2ccc(C(F)(F)F)cc2)n1-c1cnc(O)nc1             6.63
3  O=c1c2scnc2nc(SCc2ccc(F)cc2)n1-c1ccc(O)nc1             6.27
4  O=c1c2scnc2nc(SCc2c(F)cc(F)cc2F)n1-c1ccc(O)c(F)c1             7.38

Req: Write down pIC50 measured for item O=c1c2scnc2nc(SCc2ccc(C(F)(F)F)cc2F)n1-c1ccc(O)nc1
Resp: 6.92

Req: Please give measured pIC50 of the following entry: Cc1cc(F)ccc1CSc1nc2ncsc2c(=O)n1-c1cc(F)c(O)c(F)c1
Resp: 7.54

Req: Provide one value: measured pIC50 of Cc1cc(F)ccc1CSc1nc2ncsc2c(=O)n1-c1ccc(O)nn1
Resp: 6.84

Req: Consider the compound O=c1c2scnc2nc(SCc2ccc(C(F)(F)F)cc2F)n1-c1ccc(O)nn1 . State its measured pIC50.
Resp: 6.86

----------
# Tested on: human hepatocytes
# ASSAY_PROCEDURE: Evaluation of hepatocyte clearance (metabolic stability)
# Type: in vitro ADME
# CONDITION_PARAMETERS: 1 μM test compound, 5% human serum, Table 3
METRIC_NAME: Qh [%] (%)
# number only, unit % dropped from output

// solved cases for Qh [%] follow
                                  structure  endpoint_result
0  O=c1c2scnc2nc(SCc2c(F)cc(F)cc2F)n1-c1ccc(O)nn1               37
1  O=c1c2scnc2nc(SCc2ccc(Cl)cc2)n1-c1cc(F)c(O)c(F)c1               56
2  O=c1c2scnc2nc(SCc2c(F)cc(F)cc2F)n1-c1ccc(O)c(Cl)c1               73
3  O=c1c2scnc2nc(SCc2ccc(Cl)cc2F)n1-c1cnc(O)c(F)c1               15
4  O=c1c2scnc2nc(SCc2ccc(Cl)cc2)n1-c1ccc(O)nc1               41
5  Cc1cc(Cl)ccc1CSc1nc2ncsc2c(=O)n1-c1ccc(O)nn1               58

Req: Look up and report measured Qh [%] for this entry: O=c1c2scnc2nc(SCc2c(F)cc(F)cc2F)n1-c1ccc(O)c(F)c1
Resp: 79

Req: State its Qh [%] for this compound: O=c1c2scnc2nc(SCc2c(F)cc(F)cc2F)n1-c1ccc(O)nc1F
Resp: 19

Req: Complete the entry with Qh [%] for Cc1cc(F)cc(C)c1CSc1nc2ncsc2c(=O)n1-c1ccc(O)nc1
Resp: 45

Req: Report measured Qh [%]; entry is O=c1c2scnc2nc(SCc2c(F)cc(F)cc2F)n1-c1cnc(O)c(Cl)c1
Resp: 22

Req: Please indicate Qh [%] recorded for O=c1c2scnc2nc(SCc2c(F)cc(F)cc2F)n1-c1cc(F)c(O)cc1F
Resp: 72

Req: Item O=c1c2scnc2nc(SCc2c(F)cc(F)cc2F)n1-c1cnc(O)c(F)c1 : provide Qh [%]
Resp: 14

Req: Identify Qh [%] associated with the compound O=c1c2scnc2nc(SCc2ccc(F)cc2)n1-c1ccc(O)nc1
Resp: 22

Req: Give Qh [%] for Cc1cc(F)cc(C)c1CSc1nc2ncsc2c(=O)n1-c1cnc(O)c(F)c1
Resp: 37

Req: Write down Qh [%] measured for item O=c1c2scnc2nc(SCc2ccc(Cl)cc2F)n1-c1ccc(O)nc1
Resp: 45

Req: Identify measured Qh [%] corresponding to Cc1cc(Cl)ccc1CSc1nc2ncsc2c(=O)n1-c1ccc(O)nc1
Resp: 55

Req: Retrieve Qh [%] measured for N#Cc1cc(-n2c(SCc3c(F)cc(F)cc3F)nc3ncsc3c2=O)cnc1O and print it.
Resp: 15

Req: Retrieve Qh [%] measured for O=c1c2scnc2nc(SCc2c(F)cc(F)cc2F)n1-c1ccc(O)cc1Cl and print it.
Resp: 70

Req: Recall and state the measured Qh [%] for O=c1c2scnc2nc(SCc2ccc(F)cc2Br)n1-c1cnc(O)c(F)c1 .
Resp: 29

Req: Tell me measured Qh [%] for O=c1c2scnc2nc(SCc2c(F)cc(F)cc2F)n1-c1ccc(O)nc1 please.
Resp: 29

Req: Complete the entry with Qh [%] for O=c1c2scnc2nc(SCc2ccc(C(F)(F)F)cc2F)n1-c1ccc(O)nn1
Resp: 50

Req: Note Qh [%] for the compound shown: O=c1c2scnc2nc(SCc2ccc(C(F)(F)F)cc2)n1-c1cnc(O)nc1
Resp: 8
